System: MCF-7 (estrogen receptor-positive human breast adenocarcinoma) cells
test: Cell proliferation assay (AlamarBlue), MCF-7
Format: cell-based
condition-parameters: MCF-7, 48 h, AlamarBlue; listed as cis-SD
parameter-measured: IC50 (µM)
Give the number; µM is assumed, so skip it.

(Q) Consider the molecule Oc1ccc(C=Cc2c3c(cc4c2[C@@H](c2cc(O)cc(O)c2)[C@H](c2ccc(O)cc2)O4)O[C@H](c2ccc(O)cc2)[C@@H]3c2cc(O)cc(O)c2)cc1 [cis-suffruticosol D] and give its measured IC50.
(A) 46.8

----------
Test system: U2OS (human osteosarcoma) cells
test: Cell proliferation assay (AlamarBlue), U2OS
Type: cell-based
condition-parameters: U2OS, 48 h, AlamarBlue; listed as trans-SD
parameter-measured: IC50 (µM)
Give the number; µM is assumed, so skip it.

(Q) Consider the compound Oc1ccc(/C=C/c2c3c(cc4c2[C@@H](c2cc(O)cc(O)c2)[C@H](c2ccc(O)cc2)O4)O[C@H](c2ccc(O)cc2)[C@@H]3c2cc(O)cc(O)c2)cc1 [trans-suffruticosol D] and give its measured IC50.
(A) 11.3

----------
System: A549 (lung), BT20 (breast), MCF7 (breast) and U2OS (osteosarcoma) cancer cell lines
test: Cell proliferation assay, range over the four cancer cell lines
Assay type: cell-based, human
condition-parameters: Homo sapiens, 48 h, A549, BT20, MCF7, U2OS; 48 h; read-out: IC50 values in all four cancer cell lines (range)
parameter-measured: IC50

(Q) Consider the compound Oc1ccc(/C=C/c2c3c(cc4c2[C@@H](c2cc(O)cc(O)c2)[C@H](c2ccc(O)cc2)O4)O[C@H](c2ccc(O)cc2)[C@@H]3c2cc(O)cc(O)c2)cc1 [trans-suffruticosol D] and give its measured IC50.
(A) 9.93 to 15.8 µM

----------
Tested on: HMEC cells (primary human mammary breast epithelial cells)
test: Cell proliferation assay (AlamarBlue), normal HMEC
Assay type: cell-based
condition-parameters: 48 h, listed as cis-SD
parameter-measured: IC50
Returns: string containing the numeric result and its unit.

(Q) Record lookup: for HMEC cells (primary human mammary breast epithelial cells), what IC50 belongs to Oc1ccc(C=Cc2c3c(cc4c2[C@@H](c2cc(O)cc(O)c2)[C@H](c2ccc(O)cc2)O4)O[C@H](c2ccc(O)cc2)[C@@H]3c2cc(O)cc(O)c2)cc1 [cis-suffruticosol D] ?
(A) 270 µM
